target: T1, human tumor necrosis factor-α (rHuTNF-alpha, Biosource) (human, UniProt P01375 77-233); test: solid-phase ELISA, Fab lysate on coated rHuTNF-alpha
T1 construct: Bought recombinant protein coated on ELISA plates; The TNFα of the Biacore assay is not described further; also called TNFα; human TNFα
T1 sequence (P01375 77-233 limits assumed): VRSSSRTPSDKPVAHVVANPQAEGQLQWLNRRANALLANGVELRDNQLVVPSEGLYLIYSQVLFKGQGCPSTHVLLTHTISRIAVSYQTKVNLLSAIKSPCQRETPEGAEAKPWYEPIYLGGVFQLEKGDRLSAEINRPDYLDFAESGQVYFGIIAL

binder | binding result
SEQ ID NO 81 (Fab, V domains shown, Fab, E. coli lysate) VH: EVQLVESGGGLVQPGGSLRLSCRASGSTFSNHYMNWVRQAPGKGLEWIGEIRSKSINSATSYAESVKGRFIISRDGNGTDLTLEMNSLKTEDTAEYYCAQNYYGSTYDYWGQGTLVTVS VL: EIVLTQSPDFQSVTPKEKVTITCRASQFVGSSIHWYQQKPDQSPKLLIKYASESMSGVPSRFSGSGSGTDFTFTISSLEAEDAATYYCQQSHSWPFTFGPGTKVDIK | binds
SEQ ID NO 101 (Fab, V domains shown, Fab, E. coli lysate) VH: EVQLVESGGGLVQPGGSLRLSCRASGFTFSNHYMNWVRQAPGKGLEWIGEIRSKSSNSATSYAESVKGRFIISRDDNGNSLYLEMNSLKTEDTAEYYCAQNYYGSTPDYWGQGTLVTVS VL: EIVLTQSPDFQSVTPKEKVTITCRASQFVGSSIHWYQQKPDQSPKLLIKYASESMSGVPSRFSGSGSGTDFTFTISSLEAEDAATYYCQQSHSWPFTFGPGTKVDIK | binds
SEQ ID NO 126 (Fab, V domains shown, Fab, E. coli lysate) VH: EVQLVESGGGLVQPGGSLRLSCRASGSTFSNHYMNWVRQAPGKGLEWIGEIRSKSIYSATHYAESVKGRFIISRDGNKNSLYLEMNSLKTEDTAEYYCAQNYYGSTYDYWGQGTLVTVS VL: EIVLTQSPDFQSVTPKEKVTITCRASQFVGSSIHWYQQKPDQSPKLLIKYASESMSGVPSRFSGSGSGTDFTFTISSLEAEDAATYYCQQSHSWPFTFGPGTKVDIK | binds

These data points were gathered from patent US20070092518A1.
